# test name: Apparent permeability across apical to basal side in human Caco-2 cells at 2 uM incubated for 1 hr
# Assay type: ADME, cell-based
parameter: Papp A→B at 1 h, 2 µM (×10⁻⁶ cm/s)
Provide only the numeric value, understood in ×10⁻⁶ cm/s.

Papp A→B at 1 h, 2 µM reading for C#CC1(N(COP(=O)([O-])[O-])C(=O)C(=O)c2c(C)c(C(=O)Nc3ccc(F)c(C#N)c3)n(C)c2C)COC1.[Na+].[Na+] : 4.6

###

# test name: Metabolic stability in human assessed as half life at 1 uM incubated upto 180 mins
parameter: half-life at 1 µM

Measured half-life at 1 µM of C#CC1(NC(=O)C(=O)c2c(C)c(C(=O)Nc3ccc(F)c(C#N)c3)n(C)c2C)COC1 : > 6 h
